# System: Mus musculus
# TEST_SUMMARY: Mean survival time which expresses the antimalarial activity of compound was measured against Plasmodium berghei in mice (Mus musculus) at 40 mg/kg dose
# Type: functional
Quick rule: Delta MST of at least 1 days means condition met, below that means condition not met.

COMPOUND	ANSWER_LABEL
CCN(CC)CCCCCCNc1cc(OC)cc2c(C)cc(CCBr)nc12	condition not met
CCc1cc(C)nc2c(NCCCCCCN(CC)CC)cc(OC)cc12	condition met
CCc1cc(C)nc2c(NC(C)CCCN)cc(OC)cc12 (stereo unspecified)	condition met
CCc1cc(C)c2cc(OC)cc(NCCCCCCN(CC)CC)c2n1	condition not met
COc1cc(NC(C)CCCN)c2ncccc2c1 (stereo unspecified)	condition met
C=Cc1cc(C)c2cc(OC)cc(NC(C)CCCN)c2n1 (stereo unspecified)	condition not met

Data origin: ChEMBL document CHEMBL1121593
